Tested on: BT-549 breast
Assay: NCI tumour cell line growth inhibition, 48 h
Overview of reported TGI across a group of compounds:
Field format: number, assumed µM, no unit text.

# Compound, Measure Unit, TGI
rows = [
    ("O=C(Nc1ccc(-c2nc3cc4ccccc4cc3[nH]2)cc1)c1cccc(Br)c1", "µM", 28.5),
    ("CCCC1NC(=O)C(CC(C)C)NC(=O)c2cccc(n2)C(=O)NC(CC(C)C)C(=O)NC(CCC)C(=O)NC(C(=O)OC)CCCCNC1=O (stereo not given)", "µM", 76),
]

## Task Find the recorded TGI belonging to CNc1ncnc(Sc2nc(N)nc3nc[nH]c23)c1[N+](=O)[O-] and report it.
## Result 20.1

---

Overview of reported TGI across a group of compounds:
System: BT-549 breast
Assay: NCI tumour cell line growth inhibition, 48 h
Field format: number, assumed µM, no unit text.

Answered examples (2):
# Compound, Result Value
measured = [
    ("C/C(=N/NC(=S)Nc1ccccc1Cl)c1ccccn1", 19.9),
    ("CCN1CC2=C(N=c3s/c(=C\\c4ccc(Cl)cc4)c(=O)n3C2c2ccc(Cl)cc2)/C(=C/c2ccc(Cl)cc2)C1 (stereo not given)", 85.8),
]

## Task Find the recorded TGI belonging to CCCCCCCCCOC(=O)c1cnc(Cl)cn1 and report it.
## Result 63.3

---

Tested on: HL-60(TB) leukemia
Assay: NCI tumour cell line growth inhibition, 48 h
Assay Endpoint: TGI

Answered examples (2):
# Compound, Result Value
measured = [
    ("COc1ccc(OCC(=O)O)c2c1CCC(C(C)C)C2=O (stereo unspecified)", "> 100 µM"),
    ("O=C(/C=C/c1ccco1)c1ccc(Nc2nc(Nc3ccc(F)cc3)nc(Nc3ccc(Cl)cc3)n2)cc1", "98.8 µM"),
]

## Task Find the recorded TGI belonging to COC(=O)C1(C)C=C(Nc2ccccc2)C(=O)N1c1ccccc1 (stereo unspecified) and report it.
## Result > 100 µM

## Task Find the recorded TGI belonging to NCc1ccc(-c2ccc(-c3ccc(-c4ccc(CN)s4)s3)s2)s1 and report it.
## Result > 100 µM

## Task Find the recorded TGI belonging to CCN(CC)CCCN(c1cc(OC)cc2nccnc12)S(=O)(=O)c1ccc(C)cc1 and report it.
## Result > 100 µM

## Task Find the recorded TGI belonging to O=C(OCCN=C1c2ccccc2CCc2ccccc21)c1cc([N+](=O)[O-])cc([N+](=O)[O-])c1 and report it.
## Result > 100 µM

## Task Find the recorded TGI belonging to OC(c1cc2cc(Br)ccc2c2cc(Br)ccc12)C1CCCCN1 (stereo unspecified) and report it.
## Result 3.43 µM

## Task Find the recorded TGI belonging to CCOC(=O)c1c(C)n(Cc2ccccc2)c(=O)c2ccccc2c(=O)c2c(=O)ccc(=O)c1=2 and report it.
## Result > 100 µM

## Task Find the recorded TGI belonging to C/C(CN1C(=O)c2ccccc2C1=O)=N\NS(=O)(=O)c1cccc([N+](=O)[O-])c1 and report it.
## Result > 100 µM

## Task Find the recorded TGI belonging to CCOC(=O)C1(C(=O)OCC)C[C@]23OCCC(=O)[C@H]2[C@H]2C(=O)OC(C)(C)O[C@]23C1 and report it.
## Result > 100 µM

## Task Find the recorded TGI belonging to Nc1ccccc1C#CC#Cc1ccccc1N and report it.
## Result > 100 µM

## Task Find the recorded TGI belonging to Cc1ccc(C)c(NC(=O)C(=O)C2C(=O)C3=C(CC2(C)C)Nc2ccccc2S3)c1 (stereo unspecified) and report it.
## Result > 100 µM

## Task Find the recorded TGI belonging to CSC1=N/C(=C\c2ccc(C)cc2)C(=O)N1CN1CCOCC1 and report it.
## Result > 100 µM

## Task Find the recorded TGI belonging to O=C1OC(c2ccco2)=N/C1=C\c1ccc(Cl)c(Cl)c1 and report it.
## Result > 100 µM

## Task Find the recorded TGI belonging to Cc1ccc(Nc2nc(NCCO)c3ccccc3n2)cc1C and report it.
## Result 31 µM

---

System: UO-31 renal
Assay: NCI tumour cell line growth inhibition, 48 h
Assay Endpoint: TGI

# Molecule, Assay Endpoint, Result Value
measured = [
    ("CCOC(=N)CC(=O)Nc1ccc(Cl)cc1", "TGI", "> 100 µM"),
]

## Task Find the recorded TGI belonging to CC1=C(/C=C/C(C)=C/C=C/C(C)=C/C(=O)OCC2OC(n3cc(F)c(=O)[nH]c3=O)CC2OC(=O)/C=C(C)/C=C/C=C(C)/C=C/C2=C(C)CCCC2(C)C)C(C)(C)CCC1 (stereo unspecified) and report it.
## Result > 26.3 µM

## Task Find the recorded TGI belonging to O=C(O)c1ccc(S(=O)(=O)c2ccccc2)c([N+](=O)[O-])c1 and report it.
## Result > 100 µM

## Task Find the recorded TGI belonging to CC/C=C\C[C@H](O)C/C=C1/C(=O)C=C[C@@H]1C/C=C\CCCC(=O)NC(C)C and report it.
## Result 4.11 µM

## Task Find the recorded TGI belonging to CCCCCCCCC[C@@H]1C[C@@H]2CCC3C(C(=O)OC)=C(C)NC(=N1)N32 (stereo partly specified) and report it.
## Result 30.9 µM

## Task Find the recorded TGI belonging to CCOC(=O)C1C(=O)CC(O)(OCC)C(C(=O)OCC)C1c1ccc(OC)cc1 (stereo unspecified) and report it.
## Result > 100 µM

## Task Find the recorded TGI belonging to CC(C(=O)N1C(=O)N(C(=O)C(C)C(O)c2ccccc2)C(c2ccccc2)C1c1ccccc1)C(O)c1ccccc1 (stereo unspecified) and report it.
## Result 41.1 µM

## Task Find the recorded TGI belonging to COc1ccc(C(=O)Cn2c(C(=O)c3ccc(OC)cc3)nc3ccccc32)cc1 and report it.
## Result > 100 µM

## Task Find the recorded TGI belonging to CNC(=S)/C(=N\Nc1nc[nH]c1C(N)=O)C(N)=S and report it.
## Result 18.3 µM

## Task Find the recorded TGI belonging to COc1ccc(OCC(=O)O)c2c1CCC(C(C)C)C2=O (stereo unspecified) and report it.
## Result > 100 µM

## Task Find the recorded TGI belonging to COC(=O)C1(C)C=C(Nc2ccccc2)C(=O)N1c1ccccc1 (stereo unspecified) and report it.
## Result > 100 µM

## Task Find the recorded TGI belonging to Oc1cccc2c1NC1=C(CCC/C1=C\c1ccccc1)C2 and report it.
## Result > 100 µM

## Task Find the recorded TGI belonging to CCOc1c2ccsc2c(OCC)c2ccsc12 and report it.
## Result > 100 µM

## Task Find the recorded TGI belonging to Cc1ccc(NC(=O)c2[nH]c(=S)nc(N)c2-c2ccccc2C)cc1C and report it.
## Result > 100 µM

## Task Find the recorded TGI belonging to CC[C@@H]1C[C@@H]2CN3CCc4c([nH]c5ccc(OC)cc45)C(COC(=O)c4ccc(OC)c(OC)c4)(C2)C13 and report it.
## Result 98.8 µM

## Task Find the recorded TGI belonging to O=c1c2ccccc2nc2n1NC(c1c(Cl)cccc1Cl)N2c1cccc(Cl)c1 (stereo unspecified) and report it.
## Result 7.39 µM

## Task Find the recorded TGI belonging to COc1ccc(OC)c(C2CCc3nc4nc(N)nc(N)c4cc3C2)c1 (stereo unspecified) and report it.
## Result 15.8 µM

## Task Find the recorded TGI belonging to O=C(Cc1nc2ccccc2s1)C(=O)Nc1ccc(Cl)cc1 and report it.
## Result > 100 µM

## Task Find the recorded TGI belonging to NC(N)=NCCCC(N=c1c2ccccc2n(O)c2ccccc12)C(=O)O (stereo unspecified) and report it.
## Result > 100 µM

## Task Find the recorded TGI belonging to CCOC(=O)c1nc2cc(N3CCOCC3)c(F)cc2[nH]c1=O and report it.
## Result > 100 µM

## Task Find the recorded TGI belonging to CCNC(=O)C[C@@H]1N=C(c2ccc(Cl)cc2)c2cc(OC)ccc2-n2c(C)nnc21 and report it.
## Result > 100 µM

---

Test system: SF-539 CNS
Assay: NCI tumour cell line growth inhibition, 48 h
Overview of reported TGI across a group of molecules:
Field format: number, assumed µM, no unit text.

## Task Find the recorded TGI belonging to S=c1[nH]nc(COc2ccc3c(c2)CCCC3)n1/N=C/c1ccc(Cl)cc1 and report it.
## Result 32.8

## Task Find the recorded TGI belonging to O=C(Nc1ccc(-c2nc3cc4ccccc4cc3[nH]2)cc1)c1cccc(Br)c1 and report it.
## Result 26.7

---

Overview of reported TGI across a group of compounds:
System: T-47D breast
Assay: NCI tumour cell line growth inhibition, 48 h
Field format: number, assumed µM, no unit text.

Answered examples (3):
# Compound, TGI [µM]
measured = [
    ("CC(C)(C)[Si](C)(C)OCC1CCC(n2cnc3c(NC(=O)c4ccccc4)ncnc32)O1 (stereo not given)", 60.6),
    ("Cn1c(C(N)=O)cc2c1-c1nc(Nc3ccccc3)ncc1CCC2", 37.4),
    ("Cc1ccc(/C=C2\\CN(C)CC3=C2OC(N)=C(C#N)C3c2ccc(C)cc2)cc1 (stereo not given)", 71.2),
]

In the following, a different compound is considered.
## Task Find the recorded TGI belonging to Oc1ccc2ccccc2c1C=NCCCN=Cc1c(O)ccc2ccccc12 and report it.
## Result 43

The reported numbers originate from PubChem BioAssay (NCI).
